Measured values drawn from PubChem BioAssay AID720706 for this set.

# OD600 change values compiled below
assay: GFP drop in mixed WT/humanized-ribosome E. coli culture – GFP/RFP fluorescence, OD600, single point, bacterial rRNA inhibitor project, primary screen (AID 720706); settings: E. coli WT GFP vs humanized-ribosome RFP mutants, 24 h; measured here: OD600 growth, DMSO median 0, no signal -100
Hit rate of the full screen: of about 350,000 compounds, about 5,500 (1.6%) were called active. The sample holds actives, similar compounds and a random draw of the others, so the mix is not that of the screen.
readout.name: OD600 change (%)

INSERT INTO measurements (compound, readout_name, unit_of_measurement, test_value) VALUES
  ('CC(CN1CCOCC1)OC(=O)c1ccc(C(C)(C)C)cc1 (stereo not given)', 'OD600 change', '%', -0.13),
  ('COc1ccc(-n2c(SCC(=O)NCc3ccco3)nnc2-c2c[nH]c3ccccc23)cc1', 'OD600 change', '%', -16.1),
  ('CCNC(=O)Nc1ccc2c(c1)C(=O)N(C)[C@H]1CC[C@H](CC(=O)NCC3CCCCC3)O[C@@H]1CO2', 'OD600 change', '%', -5.67),
  ('O=C(CSc1nnc(-c2ccco2)n1Cc1ccccc1)NC(=O)NCc1ccco1', 'OD600 change', '%', -7.72),
  ('CC(C)(C)c1ccc(CCC2OCC(CN3CCOCC3)O2)cc1 (stereo not given)', 'OD600 change', '%', -11.3);
